assay: S. cerevisiae growth modulation with rapamycin, primary screen, strain BY4716, OD600, 96 h (AID 1091); conditions: higher = more signal, called active from +8 up or from −8 down; note: test concentration not given here
endpoint: z-score
The reply should be a number, written without any unit.

>>> df
                                   compound  endpoint  obsvalue
0  C=C(COC)/C(=C/C[C@H](OC(=O)c1ccncc1)c1ccc(OCCO)cc1)c1cc(C(=O)OC)ccc1OC   z-score    -0.649
1  C=CCNC(=O)[C@H]1[C@@H]2C(=O)O[C@@H](c3ccccc3)[C@@H](c3ccccc3)N2[C@@H](c2ccccc2OCCO)[C@]12C(=O)N(C(=O)OCCOC)c1ccccc12   z-score      5.15

Then this compound:
Prompt: Name the recorded z-score for `CC(=O)NCCCC[C@@H]1NC(=O)[C@@H]2C[C@H](C(=O)NCCCCCC[N+](C)(C)C)[C@H](c3ccc(O)cc3)N2C1=O` .
Response: 0.216

---

tested on: Human papillomavirus type 1a E7 protein (residues 1-88); assay: HPV1a E7 small-molecule binders, primary screen, biochemical, small-molecule microarray, residues 1-88, 635 nm (AID 1129); details: small-molecule microarray binding, fluorescence 635 nm; higher = more signal
endpoint: composite z-score
The reply should be a number, written without any unit.

Guide cases for composite z-score, answers given:
compound	obsValue
CCCCC(=C=CC[C@@H](O)c1ccc(OCCO)cc1)C[C@@H](O)c1ccccn1	0.731
NCCCC[C@@H]1NC(=O)[C@H]2C[C@@H](C(=O)NCc3ccc(F)cc3)[C@@H](c3ccc(O)cc3)N2C1=O	0.969
C=C(CCCC)/C(=C/C[C@H](OC(C)=O)c1cccc(OCCO)c1)c1cc(C(=O)OC)ccc1OC	-0.426

Prompt: Name the recorded composite z-score for `COCC(=C=CC[C@@H](O)c1cccc(OCCO)c1)C[C@@H](O)COCc1ccccc1` .
Response: 1.09

Prompt: Name the recorded composite z-score for `C=C(COC)/C(=C/C[C@@H](OC(C)=O)c1ccccc1OCCO)c1cc(C(=O)OC)ccc1OC` .
Response: 0.461

Prompt: Name the recorded composite z-score for C=CCC(OC(C)=O)[C@@H]1[C@@H](N(Cc2cc3ccccc3o2)C(=O)c2cccc3ccccc23)c2cc(OCCCO)ccc2N1C(=O)c1ccc2ccccc2c1 (stereo not given in full) .
Response: -0.566

Prompt: Name the recorded composite z-score for `COC(=O)[C@@]1(Cc2ccc(OC)cc2)[C@H]2c3cc(C(=O)N4CCCC4)n(CCc4ccc(OC)c(Br)c4)c3C[C@H]2CN1C(=O)c1ccccc1` .
Response: 1.16

Prompt: Name the recorded composite z-score for Cc1ccccc1C(O)C1C=CC2C(=O)N(c3ccccc3)C(=O)C2N1Nc1ccccc1F (stereo not given) .
Response: 1.22

Prompt: Name the recorded composite z-score for `C=CC[C@@]12N=C(c3ccc(OCCCO)cc3)O[C@@H]1c1ccccc1N(Cc1ccccc1)C2=O` .
Response: 1.17

Prompt: Name the recorded composite z-score for O=C1C2C=CC(C(O)c3ccc([N+](=O)[O-])cc3)N(Nc3ccccc3)C2C(=O)N1c1ccccc1 (stereo not given) .
Response: 0.976

Prompt: Name the recorded composite z-score for `NCCCC[C@@H]1NC(=O)[C@H]2C[C@@H](C(=O)NCc3ccc(F)cc3)[C@@H](c3cccc(OCCO)c3)N2C1=O` .
Response: 1.23

Prompt: Name the recorded composite z-score for `COc1ccc(C#Cc2ccc3c(c2)[C@]2(C(=O)N3)[C@H](c3ccc(OCCO)cc3)N3[C@H](c4ccccc4)[C@H](c4ccccc4)OC(=O)[C@H]3[C@@H]2C(=O)O)cc1` .
Response: 1.22

Prompt: Name the recorded composite z-score for CCC(CC)C(O)C1C=CC2C(=O)N(C)C(=O)C2N1N1CCCCC1 (stereo not given) .
Response: 1.23

Prompt: Name the recorded composite z-score for `COCCOC(=O)N1C(=O)[C@@]2(c3ccccc31)[C@H](c1ccc(OCCO)cc1)N1[C@H](c3ccccc3)[C@H](c3ccccc3)OC(=O)[C@H]1[C@@H]2C(=O)N1CCN(c2ncccn2)CC1` .
Response: 1.2

Prompt: Name the recorded composite z-score for `CCOC(=O)C1=C(C(=O)OCC)N(S(=O)(=O)CC[Si](C)(C)C)[C@H](c2ccccc2)CC1` .
Response: 1.17

---

test: A549 cell viability effects, profiling panel, calcein-AM fluorescence, 48 h, basal (AID 1162); settings: higher = more signal; note: test concentration not given here
endpoint: z-score
The reply should be a number, written without any unit.

Guide cases for z-score, answers given:
                                   compound  endpoint  obsvalue
0  Cc1ccc(S[C@]2(C(=O)NCC(F)(F)F)CC(=O)N(C3CCCCC3)[C@@H]2c2ccc(CO)cc2)cc1   z-score     0.815
1  CC(C)CNC(=O)[C@@H]1c2ccccc2C(=O)N(C2Cc3ccccc3C2)[C@H]1c1ccc(CO)cc1   z-score      2.03
2  CCOC(=O)C[C@H]1[C@H](OC(=O)c2ccc(C(=O)c3ccccc3)cc2)[C@@H](NC(=O)c2ccc3ccccc3c2)c2cc(OCCCO)ccc2N1C(=O)c1ccc2ccccc2n1   z-score      1.54
3  C#CCN([C@H](/C=C/C1CC1)[C@@H](O)Cc1ccccc1)[C@@H](Cc1ccccc1)C(=O)OC   z-score    -0.509
4  O=C1OCCC=C[C@H]2OC34C=CCN(CCN5CCOCC5)C(=O)[C@H]3N(CCCO)C(=O)[C@@H]4C12 (some centres not stated)   z-score     0.531

Prompt: Name the recorded z-score for `CC(=O)NCCCC[C@@H]1NC(=O)[C@@H]2C[C@H](C(=O)NCCCCCC[N+](C)(C)C)[C@H](c3ccc(O)cc3)N2C1=O` .
Response: 0.131

Prompt: Name the recorded z-score for `COC(=O)[C@H](Cc1ccc(O)cc1)N1CC2=CCCC=C[C@@H]2[C@H]1[C@H](O)Cc1ccccc1` .
Response: 0.852

---

target: Alpha-bungarotoxin (Bungarus multicinctus) (UniProt P60615); experiment: alpha-bungarotoxin binders on microarray, profiling panel, artefact control for SMM control protein annotation, biochemical, small-molecule microarray, Alexa647 label, 635/667 nm fluorescence (AID 1117); conditions: alpha-BTX-A647 binding fluorescence, higher = more signal
Sequence (P60615 whole entry, looked up): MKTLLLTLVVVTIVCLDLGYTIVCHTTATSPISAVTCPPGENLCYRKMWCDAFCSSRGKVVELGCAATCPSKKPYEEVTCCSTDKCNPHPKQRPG
Collected composite z-score values appear next to each entry.
The reply should be a number, written without any unit.

Prompt: Observed composite z-score on Alpha-bungarotoxin (Bungarus multicinctus) (UniProt P60615) for `CN(C)CCCNC(=O)[C@@H]1c2ccccc2C(=O)N(C2Cc3ccccc3C2)[C@H]1c1ccc(CO)cc1` , please.
Response: 0.438

Prompt: Observed composite z-score on Alpha-bungarotoxin (Bungarus multicinctus) (UniProt P60615) for `C=C(/C(=C/C[C@H](OC(=O)c1ccncc1)c1ccccc1OCCO)c1cc(C(=O)OC)ccc1OC)C(C)C` , please.
Response: 1.42

Prompt: Observed composite z-score on Alpha-bungarotoxin (Bungarus multicinctus) (UniProt P60615) for `COCCOC(=O)N1C(=O)[C@@]2(c3cc(C#CCC(C(=O)OC)C(=O)OC)ccc31)[C@H](C(=O)N1CCc3cc(OC)c(OC)cc3C1)[C@H]1C(=O)O[C@H](c3ccccc3)[C@H](c3ccccc3)N1[C@@H]2c1ccc(O)cc1` , please.
Response: 0.906

---

test: E. coli acrAB mutant growth effects, primary screen, E. coli filamentation inducers, strain DRC39, OD650, 24 h (AID 1178); settings: higher = more signal, called active from +8 up or from −8 down;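 note: growth measured as culture turbidity by optical density at 650 nm; test concentration not given here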
# label = bin(measured z-score), where bins are 1 = under -0.3, 2 = from -0.3 up to 0.2, 3 = 0.2 and over

Would you please look over these solved cases?
compound	cat
C=C(/C(=C/C[C@@H](OC(C)=O)c1ccccc1OCCO)c1cc(C(=O)OC)ccc1OC)C(C)C	3
COCCCNC(=O)[C@@]1(Sc2ccc(C)cc2)CC(=O)N(C2CCCCC2)[C@@H]1c1ccc(CO)cc1I	2
CCCC[C@H]1OB(O)C[C@H]2C1=C(C)C[C@H]1C(=O)C=CC(=O)[C@H]12	1
COc1ccc([Si](C)(C)[C@H]2[C@H](CCO)O[C@@]3(C(=O)N(Cc4ccccc4)c4ccc(N(C=O)c5ccccc5)cc43)[C@@H]2C)cc1	3
COCCOC(=O)N1C(=O)[C@@]2(c3cc(C#CC4(O)CCCCCC4)ccc31)[C@H](c1ccccc1OCCO)N1[C@H](c3ccccc3)[C@H](c3ccccc3)OC(=O)[C@H]1[C@@H]2C(=O)N1CCCCCCC1	2
O=C1O[C@H](c2ccccc2)[C@H](c2ccccc2)N2[C@H]1[C@@H](C(=O)N1CCN(c3ncccn3)CC1)[C@]1(C(=O)Nc3ccccc31)[C@H]2c1ccc(O)cc1	2

Prompt: State the band of `CO[C@H]1O[C@H](CO)[C@@H](OC(=O)Nc2ccc(C(F)(F)F)cc2)[C@H](OC(=O)Nc2ccccc2-c2ccccc2)[C@H]1OC(=O)Nc1ccccc1-c1ccccc1`
Response: 1

Prompt: State the band of `CCc1cccc(NC(=O)O[C@H]2[C@H](OC(=O)Nc3ccc4c(c3)OCO4)[C@H](OC(=O)Nc3ccc4c(c3)OCO4)[C@@H](OC)O[C@@H]2CO)c1`
Response: 3
